ASSAYED_SYSTEM: BuChE from equine serum (Equus caballus)
Construct: BuChE from equine serum lyophilized powder (C7512-1.2KU); purchased Sigma Aldrich, Germany C7512-1.2KU; host or cells: equine serum
PROCEDURE_DETAILS: biochemical
Assay type: biochemical
TEST_SETTINGS: IC50 BuChE, pure compounds (μM for the pure compound)
MEASURE: IC50 (µM)
Record the value in µM, omitting the unit from your answer.

>>> val("CCCCCCCCCCCc1ccccc1")
234

# input for lookup
Query block: Tell me its IC50 given O=C(O)c1ccc(O)c(O)c1 [Compound 3, 3,4-dihydroxybenzoic acid] as the entry.
Result block: 232

----------
ASSAYED_SYSTEM: BuChE from equine serum (Equus caballus, UniProt P81908)
Construct: BuChE from equine serum lyophilized powder (C7512-1.2KU); purchased Sigma Aldrich, Germany C7512-1.2KU; host or cells: equine serum
Sequence (P81908 whole entry): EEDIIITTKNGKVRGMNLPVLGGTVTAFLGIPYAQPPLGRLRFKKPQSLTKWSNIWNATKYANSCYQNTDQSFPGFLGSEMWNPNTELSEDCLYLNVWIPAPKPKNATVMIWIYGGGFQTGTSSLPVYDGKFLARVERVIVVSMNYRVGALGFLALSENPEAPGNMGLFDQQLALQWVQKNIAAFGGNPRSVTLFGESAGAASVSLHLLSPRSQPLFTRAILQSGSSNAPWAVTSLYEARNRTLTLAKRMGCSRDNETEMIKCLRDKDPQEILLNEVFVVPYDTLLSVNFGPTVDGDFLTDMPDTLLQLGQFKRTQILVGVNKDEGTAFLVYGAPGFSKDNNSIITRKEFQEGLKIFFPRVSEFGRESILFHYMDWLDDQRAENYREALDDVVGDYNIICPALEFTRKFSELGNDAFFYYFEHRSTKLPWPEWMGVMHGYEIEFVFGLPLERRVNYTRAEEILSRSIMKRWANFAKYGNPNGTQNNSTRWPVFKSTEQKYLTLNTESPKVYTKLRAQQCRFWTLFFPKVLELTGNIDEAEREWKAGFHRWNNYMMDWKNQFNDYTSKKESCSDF
PROCEDURE_DETAILS: biochemical
Format: biochemical
TEST_SETTINGS: pure compounds (μM for the pure compound); read-out: IC50 BuChE
MEASURE: IC50 (µM)
Record the value in µM, omitting the unit from your answer.

Query block: Tell me its IC50 given O=C(O)CCCCCCCCCCCCCCCc1ccccc1 [Compound 1, 16-phenylhexadecanoic acid] as the entry.
Result block: 41

----------
ASSAYED_SYSTEM: AChE from Electrophorus electricus (electric eel) Type V-S (Electrophorus electricus)
Construct: purified AChE from Electrophorus electricus (electric eel) Type V-S (C2888-1K); purchased Sigma Aldrich, Germany C2888-1K
Sequence (O42275 24-633): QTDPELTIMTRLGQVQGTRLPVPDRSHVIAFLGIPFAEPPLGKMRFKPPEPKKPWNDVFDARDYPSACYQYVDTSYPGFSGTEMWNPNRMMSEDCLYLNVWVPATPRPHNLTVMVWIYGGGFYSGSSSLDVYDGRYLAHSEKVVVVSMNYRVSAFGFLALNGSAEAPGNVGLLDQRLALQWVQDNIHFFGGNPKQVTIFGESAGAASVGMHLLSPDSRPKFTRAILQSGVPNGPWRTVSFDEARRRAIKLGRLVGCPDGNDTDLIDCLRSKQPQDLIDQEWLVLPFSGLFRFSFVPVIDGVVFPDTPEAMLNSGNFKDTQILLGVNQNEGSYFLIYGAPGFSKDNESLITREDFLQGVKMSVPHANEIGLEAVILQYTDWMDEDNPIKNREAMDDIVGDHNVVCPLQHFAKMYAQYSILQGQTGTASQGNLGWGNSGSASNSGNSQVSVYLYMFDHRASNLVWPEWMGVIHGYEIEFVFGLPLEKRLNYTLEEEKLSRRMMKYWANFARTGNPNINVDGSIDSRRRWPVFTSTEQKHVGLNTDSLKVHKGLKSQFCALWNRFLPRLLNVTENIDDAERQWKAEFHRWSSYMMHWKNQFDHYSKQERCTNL
PROCEDURE_DETAILS: biochemical
Type: biochemical
TEST_SETTINGS: pure compounds (μM for the pure compound); read-out: IC50 AChE
MEASURE: IC50 (µM)
Record the value in µM, omitting the unit from your answer.

Query block: Tell me its IC50 given `O=C(O)CCCCCCCCCCCCCCCc1ccccc1` as the entry.
Result block: 46.8
